Reference for the values: paper PMC4303524

# targetUnderTest: wild-type LasR (Pseudomonas aeruginosa, UniProt P25084)
# protocolNotes: β-galactosidase reporter-gene assay, LasR activation
# Type: cell-based
# cond: E. coli reporter, geometric mean of biological triplicates
quantity: pEC50
pEC50 field: float, defined as -log10 of concentration (mol/L).

Record CCCCCCCCCC(=O)CC(=O)NC1CCSC1=O (stereo not shown) . Reported pEC50: 8.30

---

# targetUnderTest: LasR T75V (Pseudomonas aeruginosa, UniProt P25084, T75V)
# Sequence (P25084 1-239 T75V): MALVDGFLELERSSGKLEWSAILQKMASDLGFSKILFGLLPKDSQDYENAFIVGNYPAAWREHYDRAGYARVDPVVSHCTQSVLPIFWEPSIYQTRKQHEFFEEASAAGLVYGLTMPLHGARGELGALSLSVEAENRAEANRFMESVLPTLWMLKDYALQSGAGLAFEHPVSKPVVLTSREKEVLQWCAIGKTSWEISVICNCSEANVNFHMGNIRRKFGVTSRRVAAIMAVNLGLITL
# protocolNotes: β-galactosidase reporter-gene assay, LasR activation
# cond: E. coli reporter, geometric mean of biological triplicates
quantity: EC50 (nM)
Answer with a number only, understood to be in nM.

Record CCCCCCCCCC(=O)CC(=O)NC1CCSC1=O (stereo not shown) . Reported EC50: 0.5

---

# targetUnderTest: LasR S129A (Pseudomonas aeruginosa, UniProt P25084, S129A)
# protocolNotes: β-galactosidase reporter-gene assay, LasR activation
# cond: E. coli reporter, geometric mean of biological triplicates
quantity: EC50 (nM)
Answer with a number only, understood to be in nM.

Record CCCCCCCCCC(=O)CC(=O)NC1CCSC1=O (stereo not shown) . Reported EC50: 30

---

# targetUnderTest: LasR Y93F (Pseudomonas aeruginosa, UniProt P25084, Y93F)
# protocolNotes: β-galactosidase reporter-gene assay, LasR activation
# cond: E. coli reporter, geometric mean of biological triplicates
quantity: EC50 (nM)
Answer with a number only, understood to be in nM.

Record CCCCCCCCCC(=O)CC(=O)NC1CCSC1=O (stereo not shown) . Reported EC50: 10

---

# targetUnderTest: LasR Y56F (Pseudomonas aeruginosa, UniProt P25084, Y56F)
# protocolNotes: β-galactosidase reporter-gene assay, LasR activation
# cond: E. coli reporter, geometric mean of biological triplicates
quantity: pEC50
pEC50 field: float, defined as -log10 of concentration (mol/L).

Record CCCCCCCCCC(=O)CC(=O)NC1CCSC1=O (stereo not shown) [Ligand 1] . Reported pEC50: 8.30
